# experimental-system: SIRT1 (Homo sapiens)
# Sequence (Q96EB6 whole entry): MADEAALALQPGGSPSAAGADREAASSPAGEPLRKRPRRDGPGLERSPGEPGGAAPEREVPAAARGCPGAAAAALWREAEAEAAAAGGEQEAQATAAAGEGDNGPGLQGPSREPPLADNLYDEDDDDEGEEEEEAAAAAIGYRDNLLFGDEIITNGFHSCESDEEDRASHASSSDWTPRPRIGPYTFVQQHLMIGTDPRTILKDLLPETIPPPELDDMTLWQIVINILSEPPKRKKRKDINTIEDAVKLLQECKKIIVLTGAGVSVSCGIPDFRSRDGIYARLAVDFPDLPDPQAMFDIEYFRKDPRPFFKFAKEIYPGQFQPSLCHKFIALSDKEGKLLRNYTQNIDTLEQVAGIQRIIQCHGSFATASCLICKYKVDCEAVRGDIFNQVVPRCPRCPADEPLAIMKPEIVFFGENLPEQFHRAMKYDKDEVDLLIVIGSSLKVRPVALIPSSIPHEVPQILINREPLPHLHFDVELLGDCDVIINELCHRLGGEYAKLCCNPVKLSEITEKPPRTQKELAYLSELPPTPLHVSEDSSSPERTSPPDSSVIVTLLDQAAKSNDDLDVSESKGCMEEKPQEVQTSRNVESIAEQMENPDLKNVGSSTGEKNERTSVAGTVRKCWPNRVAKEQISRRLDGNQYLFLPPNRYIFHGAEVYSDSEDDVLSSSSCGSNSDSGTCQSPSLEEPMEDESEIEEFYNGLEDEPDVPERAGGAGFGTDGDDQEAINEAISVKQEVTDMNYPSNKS
# assay-procedure: Mass spectrometry based SIRT1 deacetylase activation assay (acetylated p53-derived peptide substrate)
# Type: biochemical
parameter: EC1.5

Worked cases, EC1.5 given:
                                   compound  parameter      result_value
0  O=C(NC1CCOC1=O)c1cccc2[nH]c(-c3cc(F)ccc3C(F)(F)F)nc12 (centres unmarked) [Compound 378]      EC1.5  C (EC1.5 >25 uM)
1  Cc1csc(-c2nc3c(C(=O)Nc4nccs4)cccc3[nH]2)n1 [Compound 292]      EC1.5  A (EC1.5<1.0 uM)
2  CN1CCOc2cc(-c3nc4c(C(=O)Nc5nccs5)cccc4[nH]3)cnc21 [Compound 371]      EC1.5  A (EC1.5<1.0 uM)
3  O=C(Nc1ccc(Cl)nn1)c1cccc2[nH]c(-c3cccc(C(F)(F)F)c3)nc12 [Compound 309]      EC1.5  C (EC1.5 >25 uM)
4  O=C(Nc1nccs1)c1cncc2[nH]c(-c3ccccc3C(F)(F)F)nc12 [Compound 341]      EC1.5  A (EC1.5<1.0 uM)

Please report the measured EC1.5 for O=C(Nc1nccs1)c1cccc2[nH]c(-c3ccc(F)c(F)c3)nc12 [Compound 214] tested on SIRT1 (Homo sapiens). C (EC1.5 >25 uM)

Please report the measured EC1.5 for O=C(Nc1cc[n+]([O-])cc1)c1cccc2[nH]c(-c3ccccc3C(F)(F)F)nc12 [Compound 337] tested on SIRT1 (Homo sapiens). A (EC1.5<1.0 uM)
